# experimental_system: Human EphA2 (ephrin receptor A2) on cells (human, UniProt P29317 25-976)
# Sequence (P29317 25-976): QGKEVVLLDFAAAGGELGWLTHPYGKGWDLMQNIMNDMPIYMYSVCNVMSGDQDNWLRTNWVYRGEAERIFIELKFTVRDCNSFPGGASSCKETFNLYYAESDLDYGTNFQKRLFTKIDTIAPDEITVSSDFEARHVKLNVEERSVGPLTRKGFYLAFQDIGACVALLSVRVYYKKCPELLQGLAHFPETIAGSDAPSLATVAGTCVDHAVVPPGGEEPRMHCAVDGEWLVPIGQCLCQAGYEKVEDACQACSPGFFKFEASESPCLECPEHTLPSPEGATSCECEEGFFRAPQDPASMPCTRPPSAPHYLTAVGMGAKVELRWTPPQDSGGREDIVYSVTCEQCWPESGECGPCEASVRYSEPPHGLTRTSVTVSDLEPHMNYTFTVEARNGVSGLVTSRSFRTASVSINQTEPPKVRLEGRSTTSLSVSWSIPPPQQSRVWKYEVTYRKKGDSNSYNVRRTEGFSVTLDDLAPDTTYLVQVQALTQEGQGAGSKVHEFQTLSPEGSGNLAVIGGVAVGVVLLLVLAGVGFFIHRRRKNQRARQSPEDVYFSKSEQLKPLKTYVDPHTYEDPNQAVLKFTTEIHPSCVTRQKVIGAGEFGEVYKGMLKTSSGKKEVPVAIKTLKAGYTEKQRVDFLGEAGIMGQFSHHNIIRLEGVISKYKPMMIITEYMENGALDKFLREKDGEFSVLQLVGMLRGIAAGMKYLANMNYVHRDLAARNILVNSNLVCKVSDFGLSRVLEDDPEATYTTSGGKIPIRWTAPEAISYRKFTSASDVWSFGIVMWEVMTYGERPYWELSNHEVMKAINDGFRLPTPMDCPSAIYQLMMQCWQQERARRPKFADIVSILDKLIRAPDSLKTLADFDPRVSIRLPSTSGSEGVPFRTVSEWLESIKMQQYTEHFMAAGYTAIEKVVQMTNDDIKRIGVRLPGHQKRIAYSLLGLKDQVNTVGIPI
# assay_details: cell-based or functional assay
Listing: ADCC EC50 of selected binders
Remember to quote the unit after the number.

AB-010360 (antibody, mouse IgG2a, V domains shown) VH: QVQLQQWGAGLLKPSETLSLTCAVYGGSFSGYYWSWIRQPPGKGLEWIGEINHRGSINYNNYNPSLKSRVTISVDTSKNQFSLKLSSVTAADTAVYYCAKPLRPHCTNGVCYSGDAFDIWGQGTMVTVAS VL: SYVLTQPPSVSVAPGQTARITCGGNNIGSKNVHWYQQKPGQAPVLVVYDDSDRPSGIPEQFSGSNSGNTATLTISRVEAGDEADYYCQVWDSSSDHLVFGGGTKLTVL    4.3 nM
AB-010363 (antibody, V domains shown) VH: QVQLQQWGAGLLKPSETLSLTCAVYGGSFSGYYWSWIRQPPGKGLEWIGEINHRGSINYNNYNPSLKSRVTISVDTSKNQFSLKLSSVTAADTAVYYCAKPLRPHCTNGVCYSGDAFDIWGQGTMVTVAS VL: SYVLTQPPSVSVAPGQTARITCGGNNIGSKNVHWYQQKPGQAPVLVVYDDSDRPSGIPERFSGSNSGNTATLTISRVEAGDEADYYCQVWDSSSDHVVFGGGTKLTVL    9.5 nM
AB-010366 (antibody, mouse IgG2a, V domains shown) VH: QVQLQQWGAGLLKPSETLSLTCAVYGGSFSGYYWSWIRQPPGKGLEWIGEINHQGSINYNNYNPSLKSRVTISVDTSKNQFSLKLSSVTAADTAVYYCAKPLRPHCTNGVCYSGDAFDIWGQGTMVTVAS VL: SYVLTQPPSVSVAPGQTARITCGGNNIGSKNVHWYQQKPGQAPVLVVYDDSDRPSGIPEQFSGSNSGNTATLTISRVEAGDEADYYCQVWDSSSDHVVFGGGTKLTVL    28.9 nM

Task item: Query: ADCC EC50; subject: AB-010359 (antibody, V domains shown) VH: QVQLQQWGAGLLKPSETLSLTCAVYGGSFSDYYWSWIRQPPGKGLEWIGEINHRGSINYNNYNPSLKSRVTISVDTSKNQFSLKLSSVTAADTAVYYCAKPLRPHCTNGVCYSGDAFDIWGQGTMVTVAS VL: SYVLTQPPSVSVAPGQTARITCGGNNIGSKNVHWYQQKPGQAPVLVVYDDSDRPSGIPERFSGSNSGNTATLTISRVEAGDEADYYCQVWDSSSDHVVFGGGTKLTVL
Reply: 25.3 nM

Task item: Another binder to check: AB-010358 (antibody, mouse IgG2a, V domains shown) VH: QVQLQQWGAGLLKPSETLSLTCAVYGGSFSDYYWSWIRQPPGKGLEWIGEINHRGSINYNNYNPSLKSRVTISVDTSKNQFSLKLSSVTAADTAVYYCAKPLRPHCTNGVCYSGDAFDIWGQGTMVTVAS VL: SYVLTQPPSVSVAPGQTARITCGGNNIGSKNVHWYQQKPGQAPVLVVYDDSDRPSGIPERFSGSNSGNTATLTISRVEAGDEADYYCQVWDSSSDHLVFGGGTKLTVL
Reply: 73.3 nM

Task item: Do the same for AB-010364 (antibody, mouse IgG2a, V domains shown) VH: QVQLQQWGAGLLKPSETLSLTCAVYGGSFSGYYWSWIRQPPGKGLEWIGEINHAGSINYNNYNPSLKSRVTISVDTSKNQFSLKLSSVTAADTAVYYCAKPLRPHCTNGVCYSGDAFDIWGQGTMVTVAS VL: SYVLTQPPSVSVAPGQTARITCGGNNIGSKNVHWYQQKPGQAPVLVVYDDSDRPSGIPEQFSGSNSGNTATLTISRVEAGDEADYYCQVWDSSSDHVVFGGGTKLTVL please
Reply: 14.5 nM
